Would you mind telling me the reported EC50 of hC3 cleavage of each entry?
targetUnderTest: plasma purified human complement protein C3 (human) (UniProt P01024)
Sequence (P01024 23-667, chain 1 of 2): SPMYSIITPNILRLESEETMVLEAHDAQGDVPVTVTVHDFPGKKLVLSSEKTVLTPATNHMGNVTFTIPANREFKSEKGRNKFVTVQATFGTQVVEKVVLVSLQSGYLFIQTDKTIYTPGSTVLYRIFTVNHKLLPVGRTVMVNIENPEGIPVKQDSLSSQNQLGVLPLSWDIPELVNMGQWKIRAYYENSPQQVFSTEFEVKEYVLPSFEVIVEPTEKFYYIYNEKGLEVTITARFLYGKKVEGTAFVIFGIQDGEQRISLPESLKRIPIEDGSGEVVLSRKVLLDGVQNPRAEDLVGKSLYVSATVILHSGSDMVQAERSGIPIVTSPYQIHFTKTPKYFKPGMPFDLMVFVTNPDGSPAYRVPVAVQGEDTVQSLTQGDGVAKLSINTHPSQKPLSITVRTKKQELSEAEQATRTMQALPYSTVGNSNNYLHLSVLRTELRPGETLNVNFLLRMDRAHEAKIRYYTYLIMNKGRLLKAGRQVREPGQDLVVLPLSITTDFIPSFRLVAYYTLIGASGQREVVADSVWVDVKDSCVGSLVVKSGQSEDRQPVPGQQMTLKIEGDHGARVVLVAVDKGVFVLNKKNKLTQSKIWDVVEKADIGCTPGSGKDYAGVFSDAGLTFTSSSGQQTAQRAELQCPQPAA
Sequence (P01024 672-1663, chain 2 of 2): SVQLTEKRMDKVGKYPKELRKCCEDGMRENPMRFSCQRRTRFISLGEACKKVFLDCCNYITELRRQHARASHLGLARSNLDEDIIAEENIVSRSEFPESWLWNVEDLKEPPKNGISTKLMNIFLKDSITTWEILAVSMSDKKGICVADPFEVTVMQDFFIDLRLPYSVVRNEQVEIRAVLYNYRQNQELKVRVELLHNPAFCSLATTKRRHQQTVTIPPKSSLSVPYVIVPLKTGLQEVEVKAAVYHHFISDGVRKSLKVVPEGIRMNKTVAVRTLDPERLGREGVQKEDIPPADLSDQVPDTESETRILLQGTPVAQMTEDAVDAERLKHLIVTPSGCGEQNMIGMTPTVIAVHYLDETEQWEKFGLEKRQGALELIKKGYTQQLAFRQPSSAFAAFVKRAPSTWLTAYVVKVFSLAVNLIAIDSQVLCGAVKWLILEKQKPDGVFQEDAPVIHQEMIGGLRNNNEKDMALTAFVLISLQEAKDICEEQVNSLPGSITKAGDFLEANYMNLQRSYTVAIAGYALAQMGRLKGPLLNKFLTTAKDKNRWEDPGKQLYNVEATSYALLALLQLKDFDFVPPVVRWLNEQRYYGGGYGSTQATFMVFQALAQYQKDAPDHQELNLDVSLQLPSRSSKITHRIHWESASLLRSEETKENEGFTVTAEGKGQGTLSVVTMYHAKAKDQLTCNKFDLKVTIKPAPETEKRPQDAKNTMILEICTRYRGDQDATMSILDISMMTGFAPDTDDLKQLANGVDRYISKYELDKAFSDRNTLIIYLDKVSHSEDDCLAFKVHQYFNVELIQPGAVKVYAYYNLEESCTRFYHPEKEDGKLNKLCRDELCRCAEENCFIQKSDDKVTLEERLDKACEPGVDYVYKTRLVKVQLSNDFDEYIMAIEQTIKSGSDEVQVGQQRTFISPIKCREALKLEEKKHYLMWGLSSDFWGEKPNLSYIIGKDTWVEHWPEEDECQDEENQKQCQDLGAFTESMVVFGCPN
testProtocol: cell-based or functional assay
Response body: numeric value in nM, unit text excluded.

Let me know recorded EC50 of hC3 cleavage for MTSP-1 Q38G/H40R/I41H/D60bN/F97D/F99L/C122S/Q175L/Q192G (enzyme) VVGGTDADEGEWPWQVSLHALGGGRHCGASLISPNWLVSAAHCYIDNRGFRYSDPTQWTAFLGLHDQSQRSAPGVQERRLKRIISHPFFNDDTLDYDIALLELEKPAEYSSMVRPISLPDASHVFPAGKAIWVTGWGHTQYGGTGALILQKGEIRVINQTTCENLLPQLITPRMMCVGFLSGGVDSCGGDSGGPLSSVEADGRIFQAGVVSWGDGCAQRNKPGVYTRLPLFRDWIKENTGV , thanks.
0.867

Let me know recorded EC50 of hC3 cleavage for MTSP-1 I41T/F97W/F99L/C122S/G151N/Q175M/Q192G/D217L (enzyme) VVGGTDADEGEWPWQVSLHALGQGHTCGASLISPNWLVSAAHCYIDDRGFRYSDPTQWTAFLGLHDQSQRSAPGVQERRLKRIISHPFFNDWTLDYDIALLELEKPAEYSSMVRPISLPDASHVFPAGKAIWVTGWGHTQYGGTNALILQKGEIRVINQTTCENLLPQMITPRMMCVGFLSGGVDSCGGDSGGPLSSVEADGRIFQAGVVSWGLGCAQRNKPGVYTRLPLFRDWIKENTGV , thanks.
12.1
